From: the supplement of paper PMC10567573

Here, each record is paired with measured protein stability index data.
B1: INTS3 (parent)
chain: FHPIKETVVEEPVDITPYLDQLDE

Variants of: B1
Experiment: protein stability index of a GFP-peptide fusion (GPS, HEK-293T) (PSI 1-6); higher = more stable;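 note: lentivirally expressed fusions sorted by FACS into six bins by GFP to DsRed ratio, PSI derived from sequencing read proportions per bin multiplied by bin number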
Conditions: c terminus: a fixed tail appended
Give the figure only, with no unit attached.

V9W; 2

Noted for `H2W` : its protein stability index reads 4.2

# protein stability index of `V8I` = 2.88
